Test system: M. tuberculosis H37Rv growth inhibition with meropenem
ASSAY_METHOD_TEXT: dose response, H37Rv, with and without meropenem (AID 434987);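 also: growth over 7 days at 37 °C before Alamar Blue read on day 9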
RUN_PARAMETERS: measured here: IC90 with meropenem
ASSAY_METRIC: IC90

# IC90 (compound: Cc1cccc2nc(COc3ccc4ccccc4c3Br)cn12 ) is > 100 µM

# IC90 (compound: COCCOC(=O)c1c(C)oc2ccc(OC(=O)c3c(OC)cccc3OC)cc12 ) is > 100 µM

# IC90 (compound: O=C(c1ccccc1)N1CCC(CC2CC(c3cccc(Br)c3)=NO2)(C(=O)NCC2CCCCC2)CC1 (stereo unspecified) ) is > 100 µM

# IC90 (compound: O=C(Oc1oc(-c2ccco2)nc1C=Nc1ccc(Cl)cc1)c1ccco1 ) is > 100 µM

# IC90 (compound: CCOC(=O)c1ccc(N2CN(CCc3ccccc3)CNC2=S)cc1 ) is > 100 µM

# IC90 (compound: Cc1c(-c2ccncc2)oc2ccc(Br)cc2c1=O ) is > 100 µM

# IC90 (compound: O=C1c2cccc3c(N4CCCCC4)ccc(c23)C(=O)N1c1ccccn1 ) is > 100 µM

# IC90 (compound: COCCCNCCOCCOc1ccc(C)cc1Br ) is > 100 µM

# IC90 (compound: COC(=O)/C(=C\Nc1ccc(Cl)cc1Cl)NC(=O)c1ccc(Cl)cc1Cl ) is > 100 µM

# IC90 (compound: CC(=O)Nc1ccc(SCC(=O)c2cc(C)n(C)c2C)cc1 ) is 53.6 µM

# IC90 (compound: Cc1cc(C(=O)Nc2ccc(Br)cc2F)n(-c2ccccc2)n1 ) is > 100 µM

# IC90 (compound: COc1ccc(OC)c2nc(-c3ccc4c(c3)OCO4)ccc12 ) is > 25 µM

# IC90 (compound: Cc1cc2ccccn2c1C(=O)c1ccc([N+](=O)[O-])o1 ) is > 100 µM

# IC90 (compound: CC1(C)CN=C(Nc2nc3ccccc3s2)S1 ) is > 50 µM

# IC90 (compound: CCOC(=O)c1sc2ccccc2c1NC(=O)c1coc2ccccc2c1=O ) is > 100 µM

# IC90 (compound: CNC(=S)N/N=C1\C(=O)c2cccc3cccc1c23 ) is > 100 µM
